- Tested on: β-conglutin (lupin (species not stated))
- Method Summary: MST
- Conditions: binding buffer, 0.05% Tween-20, 25 C; Hill EC50 fit; PBS (10 mM phosphate, 135 mM NaCl, 2.7 mM KCl, pH 7.4) + 1.5 mM MgCl2; MST +0.05% Tween-20, 25 C (20 mM KCl for TT derivatives); BLI +0.1% Tween-20, 30 C; SPR …

{"Sequence Record": "GGTGGGGGTGG [Cy5-11-mer]", "Study Target": "β-conglutin (lupin (species not stated))", "Kd, nM": 1.05}

---

- Test system: β-conglutin (lupin (species not stated))
- Method Summary: BLI
- Conditions: 2:1 heterogeneous model, first KD; 30 C, 0.1% Tween-20; 5' TEG spacer; PBS (10 mM phosphate, 135 mM NaCl, 2.7 mM KCl, pH 7.4) + 1.5 mM MgCl2; MST +0.05% Tween-20, 25 C (20 mM KCl for TT derivatives); BLI +0.1% Tween-20, 30 C; SPR …
Recorded Endpoint: Kd (nM)

{"Sequence Record": "TTTTTTTTTTTTTTTGGTGGGGGTGG [Biotin-TEG-T15-11-mer]", "Recorded Endpoint": "Kd", "Val": 6.95}
